# System tested: Zap1 (UniProt P47043)
# Sequence: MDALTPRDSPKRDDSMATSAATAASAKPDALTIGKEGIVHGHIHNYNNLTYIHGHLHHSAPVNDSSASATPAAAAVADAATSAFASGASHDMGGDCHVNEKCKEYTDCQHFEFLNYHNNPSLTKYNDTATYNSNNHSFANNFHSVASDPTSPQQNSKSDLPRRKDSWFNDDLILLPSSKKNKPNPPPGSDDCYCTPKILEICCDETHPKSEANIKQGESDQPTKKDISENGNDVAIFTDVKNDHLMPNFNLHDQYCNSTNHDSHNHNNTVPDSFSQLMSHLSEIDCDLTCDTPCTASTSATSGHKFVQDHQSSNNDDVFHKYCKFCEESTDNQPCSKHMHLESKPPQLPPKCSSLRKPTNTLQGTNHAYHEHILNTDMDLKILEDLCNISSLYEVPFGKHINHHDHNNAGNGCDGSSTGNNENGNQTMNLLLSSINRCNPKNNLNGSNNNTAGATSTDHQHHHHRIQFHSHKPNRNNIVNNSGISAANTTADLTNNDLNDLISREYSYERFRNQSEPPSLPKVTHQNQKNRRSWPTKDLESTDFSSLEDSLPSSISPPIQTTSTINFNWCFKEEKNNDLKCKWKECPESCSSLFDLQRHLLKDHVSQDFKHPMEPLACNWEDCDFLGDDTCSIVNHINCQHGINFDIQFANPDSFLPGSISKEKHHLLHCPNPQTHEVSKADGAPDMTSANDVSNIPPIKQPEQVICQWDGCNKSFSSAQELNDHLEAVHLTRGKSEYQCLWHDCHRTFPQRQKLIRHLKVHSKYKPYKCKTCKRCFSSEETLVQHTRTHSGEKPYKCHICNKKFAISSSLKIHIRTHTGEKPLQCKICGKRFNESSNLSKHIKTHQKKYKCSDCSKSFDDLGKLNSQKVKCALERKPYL
# Protocol: PBM E-score (8-mer binding enrichment) (E-score (-0.5 to 0.5)); higher = stronger / more preferred TF binding
# Stated conditions: protein concentration: 200 nM; construct: GST-full length
The full ranking holds about 33,000 sequences; the median of “E-score (-0.5 to 0.5)” is about -0.021, and the highest 2% start at about 0.32. Only a selection was taken, and the highest values are over-represented in it overall.
I'd appreciate it if you could label each record using PBM E-score and these ranges: lo = under -0.01, mid = from -0.01 up to 0.3, hi = 0.3 and over

    ordered_residues  group_label
 0          GAGTGTCA          mid
 1          CGAATTCG           lo
 2          TAGACTGA           lo
 3          GCAGGGTA           hi
 4          AAAGTGGA           lo
 5          ACCCTCAA           hi
 6          CTGCGCAC           lo
 7          AGGTCAGA          mid
 8          CACGGGGA           lo
 9          ACCCTATA           hi
10          ACCCTATC          mid
11          ACCCTATG           hi
12          CAGCTGGC           lo
13          ACAGGGTC           hi
14          AATAACCG           hi
15          ACCCTCAG           hi
16          TCCTCACA          mid
17          CCAGGGTA           hi
18          ACCCTCAC          mid
19          CGGTCATA          mid
20          GGGTCATA           hi
21          ACAGGGTG          mid
22          AAAAGGGC          mid
23          ACTAACCT           hi
24          AGGTCAAG          mid
25          GGGTCAGA          mid
26          GCGATGGA          mid
27          ACTAACCA          mid
28          CGTATCGA           lo
29          ATGTCATC           lo
30          CTCCTTTC           lo
31          GTAAAGGA           lo
32          AATAACGG          mid
33          AGCGTCTA           lo
34          GACTTGCA           lo
35          TCATGCGA          mid
36          ACCCTCAT          mid
37          ACTTGCAC           lo
38          ACACTGAA          mid
39          CTCACATC           lo
40          AGGTCATG           hi
41          AGCTTAAA          mid
42          AGGCCCAA          mid
43          ATGTCATA           lo
44          AAAAGGGA           lo
45          TCTTCGAA          mid
